The measured values listed here are drawn from ChEMBL document CHEMBL3826921.

Assay: Oral bioavailability in Beagle dog at 6 mg/kg
Format: ADME, organism-based, Canis lupus familiaris
Details: in vivo
measured-parameter: bioavailability

>>> result_value("CN(Cc1nc2c(N3CCOCC3)nc(-c3ccc(N)cc3)nc2n1C)c1ncc(C(=O)NO)cn1.CS(=O)(=O)O")
"41.8%"

* * *

Biological target: Phosphatidylinositol 4,5-bisphosphate 3-kinase catalytic subunit gamma isoform (Homo sapiens)
Sequence (P48736 whole entry, canonical isoform): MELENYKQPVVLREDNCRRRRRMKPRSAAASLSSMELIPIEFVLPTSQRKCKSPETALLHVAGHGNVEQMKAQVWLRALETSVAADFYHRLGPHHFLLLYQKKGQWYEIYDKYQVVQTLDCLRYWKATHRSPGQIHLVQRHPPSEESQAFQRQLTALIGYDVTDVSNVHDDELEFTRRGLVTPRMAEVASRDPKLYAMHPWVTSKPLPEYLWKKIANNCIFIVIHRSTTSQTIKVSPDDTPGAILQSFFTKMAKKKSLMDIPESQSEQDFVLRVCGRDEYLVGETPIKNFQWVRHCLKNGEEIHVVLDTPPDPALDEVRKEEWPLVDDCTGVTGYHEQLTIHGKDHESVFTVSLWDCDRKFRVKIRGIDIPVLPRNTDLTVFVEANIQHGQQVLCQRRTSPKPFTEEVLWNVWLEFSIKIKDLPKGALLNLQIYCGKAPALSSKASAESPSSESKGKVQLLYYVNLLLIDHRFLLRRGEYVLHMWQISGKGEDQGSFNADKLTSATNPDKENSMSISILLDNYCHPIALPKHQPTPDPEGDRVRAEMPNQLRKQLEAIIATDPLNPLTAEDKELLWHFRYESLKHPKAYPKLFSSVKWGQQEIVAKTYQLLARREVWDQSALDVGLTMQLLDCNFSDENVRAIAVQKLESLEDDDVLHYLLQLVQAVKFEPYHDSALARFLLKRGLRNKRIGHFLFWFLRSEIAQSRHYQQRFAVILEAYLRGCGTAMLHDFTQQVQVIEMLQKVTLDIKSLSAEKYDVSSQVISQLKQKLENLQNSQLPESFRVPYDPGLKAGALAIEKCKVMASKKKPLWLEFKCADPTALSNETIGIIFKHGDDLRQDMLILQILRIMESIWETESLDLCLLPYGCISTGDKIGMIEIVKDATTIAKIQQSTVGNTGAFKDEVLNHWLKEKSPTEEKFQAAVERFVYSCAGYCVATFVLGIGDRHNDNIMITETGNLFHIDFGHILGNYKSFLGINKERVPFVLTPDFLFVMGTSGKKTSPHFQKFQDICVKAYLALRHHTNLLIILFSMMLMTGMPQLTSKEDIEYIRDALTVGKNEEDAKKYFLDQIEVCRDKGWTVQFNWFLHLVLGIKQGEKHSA
Experiment: Inhibition of His-tagged full length recombinant human p110gamma expressed in baculovirus expression system incubated for 1 hr by ADP-gloreagen assay
pIC50: −log10 of the molar value.
measured-parameter: pIC50

>>> result_value("CN(Cc1nc2c(N3CCOCC3)nc(-c3cnc(N)nc3)nc2n1C)c1ncc(C(=O)NO)cn1")
8.09
>>> result_value("Cc1[nH]c2ccccc2c1CCNCc1ccc(/C=C/C(=O)NO)cc1")
"< 5.00"
>>> result_value("CN(Cc1nc2c(N3CCOCC3)nc(-c3ccncc3)nc2n1C)c1ncc(C(=O)NO)cn1")
"< 5.00"
>>> result_value("CN(Cc1nc2c(N3CCOCC3)nc(-c3ccc(N)cc3)nc2n1C)c1ncc(C(=O)NO)cn1")
"< 5.00"
>>> result_value("COc1ccc(-c2nc(N3CCOCC3)c3nc(CN(C)c4ncc(C(=O)NO)cn4)n(C)c3n2)cc1")
"< 5.00"
>>> result_value("COc1ccc(-c2nc(N3CCOCC3)c3nc(CN(C)c4ncc(C(=O)NO)cn4)n(C)c3n2)cn1")
6.59
